# Assayed System: NrtA (FLIP-NT; CFP_NrtA_YFP) (Synechocystis sp. PCC 6803, UniProt P73452, G240Q)
# Construct: FRET sensor: His6-CFP-NrtA-YFP; NrtA without signal peptide (first 36 residues), stop and penultimate codon removed (1227 bp, 409 residues); E. coli BL21-CodonPlus(DE3), Ni-NTA
# Sequence (P73452 37-445 G240Q): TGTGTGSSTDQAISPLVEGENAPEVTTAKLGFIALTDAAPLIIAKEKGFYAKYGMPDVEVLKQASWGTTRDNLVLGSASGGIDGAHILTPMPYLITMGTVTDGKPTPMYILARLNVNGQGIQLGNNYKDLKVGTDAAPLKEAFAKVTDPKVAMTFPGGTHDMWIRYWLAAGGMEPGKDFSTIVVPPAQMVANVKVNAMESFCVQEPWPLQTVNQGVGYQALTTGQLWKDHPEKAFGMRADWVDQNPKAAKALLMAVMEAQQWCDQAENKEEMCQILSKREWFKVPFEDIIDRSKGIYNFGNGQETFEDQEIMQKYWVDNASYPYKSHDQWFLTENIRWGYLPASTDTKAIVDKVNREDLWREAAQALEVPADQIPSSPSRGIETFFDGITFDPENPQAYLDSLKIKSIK
# Protocol Notes: FRET ratio (YFP/CFP, […] nm) titration of purified sensor
Property: Kd

Inquiry: Identify the reported Kd for the following entry. O=[N+]([O-])O [nitrate]
Reply text: 32 µM
